Quick reference: pEC50 of the listed items.
# Assayed System: Peroxisome proliferator-activated receptor delta (Homo sapiens, UniProt Q03181)
# Sequence (Q03181 whole entry): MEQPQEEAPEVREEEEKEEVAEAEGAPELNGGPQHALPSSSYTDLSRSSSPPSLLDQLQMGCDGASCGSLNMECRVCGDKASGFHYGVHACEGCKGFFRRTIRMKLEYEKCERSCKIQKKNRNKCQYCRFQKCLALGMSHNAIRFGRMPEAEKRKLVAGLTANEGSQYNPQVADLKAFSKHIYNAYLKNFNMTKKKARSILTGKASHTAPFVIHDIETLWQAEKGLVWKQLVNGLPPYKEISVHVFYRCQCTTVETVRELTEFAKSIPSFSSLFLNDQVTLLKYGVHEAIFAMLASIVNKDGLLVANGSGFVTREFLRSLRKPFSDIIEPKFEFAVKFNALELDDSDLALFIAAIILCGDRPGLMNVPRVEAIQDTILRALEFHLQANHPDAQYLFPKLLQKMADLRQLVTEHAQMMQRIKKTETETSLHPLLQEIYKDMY
# Assay Summary: Agonist activity at human recombinant PPARdelta in HEK293 cells by GAL4 transactivation assay
Please note pEC50 is a logarithmic value: minus log10 of concentration in mol/L. Answer with that number alone.

{"Molecule": "CCC(Cc1ccc(OC)c(CNC(=O)c2ccc(C3CCCCC3)cc2)c1)C(=O)O (racemic)", "Measured Result": 6.52}
{"Molecule": "CCCCCCOc1ccc(CC(CC)C(=O)O)cc1CNC(=O)c1ccc(C23CC4CC(CC(C4)C2)C3)cc1 (racemic)", "Measured Result": 6.09}
{"Molecule": "CCC(Cc1ccc(OC)c(CNC(=O)c2ccc(C)cc2)c1)C(=O)O (racemic)", "Measured Result": 5.42}

Request body: readout pEC50, system Peroxisome proliferator-activated receptor delta (Homo sapiens, UniProt Q03181), query `CCCOc1ccc(C[C@@H](CC)C(=O)O)cc1CNC(=O)c1ccc(C23CC4CC(CC(C4)C2)C3)cc1` . Return the value.
6.06
